Target: Human rhinovirus A protease (Human rhinovirus sp.)
Sequence (whole entry): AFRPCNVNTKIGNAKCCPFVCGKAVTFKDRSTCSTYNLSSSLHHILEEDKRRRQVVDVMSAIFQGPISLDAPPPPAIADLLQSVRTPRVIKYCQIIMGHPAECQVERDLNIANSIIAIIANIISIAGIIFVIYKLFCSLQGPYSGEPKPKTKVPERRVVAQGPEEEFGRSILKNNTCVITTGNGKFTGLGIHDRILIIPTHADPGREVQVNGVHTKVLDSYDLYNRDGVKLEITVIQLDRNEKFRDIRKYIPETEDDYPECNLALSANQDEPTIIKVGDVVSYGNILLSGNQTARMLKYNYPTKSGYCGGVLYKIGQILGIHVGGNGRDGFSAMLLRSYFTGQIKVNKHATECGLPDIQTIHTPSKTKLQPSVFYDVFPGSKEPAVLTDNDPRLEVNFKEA
Assay: The compound was tested for the inhibitory activity against human rhinovirus-14 3C Protease
endpoint-label: K obs / 1 (M⁻¹ s⁻¹)
All answers are understood in M⁻¹ s⁻¹, so give the number only.

Form: molecule = CCOC(=O)/C=C/[C@H](CCC(N)=O)NC(=O)[C@@H]1CS[C@H]2CC[C@H](NC(=O)OCc3ccccc3)C(=O)N21 ; K obs / 1 = 26

Form: molecule = CCOC(=O)/C=C/[C@H](CCC(N)=O)NC(=O)[C@@H]1CCc2ccc(NC(=O)OCc3ccccc3)c(=O)n21 ; K obs / 1 = 4540

Form: molecule = CCOC(=O)/C=C/[C@H](CCC(N)=O)NC(=O)Cn1cccc(NC(=O)OCc2ccccc2)c1=O ; K obs / 1 = 348

Form: molecule = CCOC(=O)/C=C/[C@H](CCC(N)=O)NC(=O)[C@H](Cc1ccccc1)n1cccc(NC(=O)OCc2ccccc2)c1=O ; K obs / 1 = 114000

Form: molecule = CCOC(=O)/C=C/[C@H](C[C@@H]1CCNC1=O)NC(=O)[C@@H]1CCc2ccc(NC(=O)c3cc(C)on3)c(=O)n21 ; K obs / 1 = 177000
